# Assayed Target: Collagenase-I (Homo sapiens, UniProt P03956)
# Construct: the collagenase-1 catalytic domain was released by treatment with 1 mM of aninophenylmercuric acetate; ubiquitin (cleaved yes); made in house; host or cells: E. coli
# Sequence (P03956 100-269 limits assumed): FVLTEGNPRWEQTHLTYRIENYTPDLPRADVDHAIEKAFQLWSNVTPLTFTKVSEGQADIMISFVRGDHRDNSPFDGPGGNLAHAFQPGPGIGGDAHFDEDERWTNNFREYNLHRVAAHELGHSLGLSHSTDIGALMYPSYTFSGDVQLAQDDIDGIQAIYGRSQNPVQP
# Assay Text: MMP enzymatic assay, hydrolysis of MCA-Pro-Leu-Gly-Leu-DPA-Ala-Arg-NH2, Collagenase-I
# Assay type: biochemical
# Experimental Context: read-out: Collagenase-I IC50; 37° C., pH 7.5, 2.5% DMSO
Measured Metric: IC50 (µM)
Express your answer in µM, writing the number without its unit.

Request: # query: IC50 | item CC(C)[C@@H](NS(=O)(=O)N1CCN(c2ccc(OCc3ccncc3)cc2)CC1)C(=O)O | system: Collagenase-I (Homo sapiens, UniProt P03956)
Response: 9.3
